IC50: recorded values
molecular target: NRAS G12C (Homo sapiens (Human), UniProt P01111+P62937, G12C); experiment: Ras-Raf (BRAF RBD) disruption / FRET / MOA assay, NRAS G12C; format: biochemical; settings: read-out: IC50* NRAS G12C FRET data
Sequence (P01111 whole entry G12C): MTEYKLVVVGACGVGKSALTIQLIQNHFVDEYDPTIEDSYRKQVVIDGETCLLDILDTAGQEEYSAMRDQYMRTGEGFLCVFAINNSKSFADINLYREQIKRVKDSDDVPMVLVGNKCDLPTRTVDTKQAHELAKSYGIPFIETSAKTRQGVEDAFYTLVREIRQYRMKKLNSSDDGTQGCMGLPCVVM
Sequence (P62937 whole entry): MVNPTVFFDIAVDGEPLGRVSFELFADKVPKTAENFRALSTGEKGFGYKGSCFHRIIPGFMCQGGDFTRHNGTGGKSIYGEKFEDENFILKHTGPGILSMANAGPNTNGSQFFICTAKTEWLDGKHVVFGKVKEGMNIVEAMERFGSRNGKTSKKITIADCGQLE

compound: CC#CC(=O)N1CC[C@@]2(CCN([C@H](C(=O)N[C@H]3Cc4nc(cs4)-c4ccc5c(c4)c(c(-c4cccnc4[C@H](C)OC)n5CC)CC(C)(C)COC(=O)[C@@H]4CCCN(N4)C3=O)C(C)C)C2=O)C1 (atropisomer, axis not shown) [Example A535]
IC50: 1000 to 10000 nM

compound: C=CC(=O)N1CCN(C(=O)N(C)[C@H](C(=O)N[C@H]2Cc3nc(cs3)-c3ccc4c(c3)c(c(-c3cccnc3[C@H](C)OC)n4CC)CC(C)(C)COC(=O)[C@@H]3CCCN(N3)C2=O)C(C)C)[C@@H]2CC[C@@H]21 (atropisomer, axis not shown) [Example A718]
IC50: 100 to 1000 nM

compound: C=CC(=O)N1C[C@@H](C)N(C(=O)N(C)[C@H](C(=O)N[C@H]2Cc3nc(cs3)-c3ccc4c(c3)c(c(-c3cccnc3[C@H](C)OC)n4CC)CC(C)(C)COC(=O)[C@@H]3CCCN(N3)C2=O)C(C)C)C[C@H]1C (atropisomer, axis not shown) [Example A406]
IC50: 100 to 1000 nM

compound: C=CC(=O)N1CC[C@H](C(=O)N(C)c2ccccc2C(=O)N[C@H]2Cc3cc(O)cc(c3)-c3ccc4c(c3)c(c(-c3cnccc3COC)n4CC)CC(C)(C)COC(=O)[C@@H]3CCCN(N3)C2=O)C1 [Example A228]
IC50: 1000 to 10000 nM

compound: CO[C@@H](C)c1ncccc1-c1c2c3cc(ccc3n1CC(F)(F)F)N1CCO[C@@H](C[C@H](NC(=O)[C@@H](COC3CN(C(=O)C#CC(C)(C)N(C)C)C3)C(C)C)C(=O)N3CCC[C@H](N3)C(=O)OCC(C)(C)C2)C1 (atropisomer, axis not shown) [Example A375]
IC50: < 10 nM

compound: CCn1c(-c2cncnc2)c2c3cc(ccc31)-c1cc(O)cc(c1)C[C@H](NC(=O)[C@H](C(C)C)N(C)C(=O)[C@H]1CCN(C(=O)C#CCN3CCOCC3)C1)C(=O)N1CCC[C@H](N1)C(=O)OCC(C)(C)C2 [Example A176]
IC50: < 10 nM

compound: C=CC(=O)N1CC[C@H](C(=O)N(CC)[C@H](C(=O)N[C@H]2Cc3cccc(c3)-c3ccc4c(c3)c(c(-c3cccnc3[C@H](C)OC)n4CC)CC(C)(C)COC(=O)[C@@H]3CCCN(N3)C2=O)C(C)C)C1 (atropisomer, axis not shown) [Example A399]
IC50: 100 to 1000 nM

compound: C=CC(=O)N1CC[C@]2(CCN2C(=O)N(C)[C@H](C(=O)N[C@H]2Cc3nc(cs3)-c3ccc4c(c3)c(c(-c3cccnc3[C@H](C)OC)n4CC)CC(C)(C)COC(=O)[C@@H]3CCCN(N3)C2=O)C(C)C)C1 (atropisomer, axis not shown) [Example A662]
IC50: 10 to 100 nM

compound: C=CC(=O)N1CCO[C@]2(CCN(C(=O)N(C)[C@H](C(=O)N[C@H]3Cc4nc(cs4)-c4ccc5c(c4)c(c(-c4cccnc4[C@H](C)OC)n5CC(F)(F)F)CC(C)(C)COC(=O)[C@@H]4CCCN(N4)C3=O)C(C)C)C2)C1 (atropisomer, axis not shown) [Example A593]
IC50: 100 to 1000 nM

compound: C=CC(=O)N1CCC(F)(C(=O)N(C)[C@H](C(=O)N[C@H]2C[C@H]3CN(CCO3)c3ccc4c(c3)c(c(-c3cccnc3[C@H](C)OC)n4CC)CC(C)(C)COC(=O)[C@@H]3CCCN(N3)C2=O)C(C)C)CC1 (atropisomer, axis not shown) [Example A722]
IC50: 10 to 100 nM

compound: C=CC(=O)N1CC2(C1)OCCCN2C(=O)N(C)[C@H](C(=O)N[C@H]1Cc2nc(cs2)-c2ccc3c(c2)c(c(-c2cccnc2[C@H](C)OC)n3CC)CC(C)(C)COC(=O)[C@@H]2CCCN(N2)C1=O)C(C)C (atropisomer, axis not shown) [Example A735]
IC50: < 10 nM

compound: C=CC(=O)N1CC(OCC(C(=O)N[C@H]2Cc3cccc(c3)-c3ccc4c(c3)c(c(-c3cccnc3[C@H](C)OC)n4CC)CC(C)(C)COC(=O)[C@@H]3CCCN(N3)C2=O)C(C)C)C1 (stereo partly drawn) [Example A483]
IC50: 100 to 1000 nM

compound: C=CC(=O)N1CC[C@H](C(=O)N(C)C(C(=O)N[C@H]2C[C@H]3CN(CCO3)c3ccc4c(c3)c(c(-c3cccnc3[C@H](C)OC)n4CC)CC(C)(C)COC(=O)[C@@H]3CCCN(N3)C2=O)C(C)C)C1 (mixture of isomers) [Example A507]
IC50: 100 to 1000 nM

compound: C=CC(=O)N1C[C@H](C)N(C(=O)N(C)[C@H](C(=O)N[C@H]2Cc3nc(cs3)-c3ccc4c(c3)c(c(-c3cccnc3[C@H](C)OC)n4CC)CC(C)(C)COC(=O)[C@@H]3CCCN(N3)C2=O)C(C)C)CC12CC2 (atropisomer, axis not shown) [Example A586]
IC50: 100 to 1000 nM

compound: C=CC(=O)N1CCC(C(=O)N(C)[C@H](C(=O)N[C@H]2CCC(=O)N(C)Cc3ccc4c(c3)c(c(-c3cccnc3[C@H](C)OC)n4CC)CC(C)(C)COC(=O)[C@@H]3CCCN(N3)C2=O)C(C)C)C1 (atropisomer, axis not shown) [Example A500]
IC50: > 10000 nM
